Target: Receptor-type tyrosine-protein kinase FLT3 (Homo sapiens, UniProt P36888)
Sequence (P36888 whole entry): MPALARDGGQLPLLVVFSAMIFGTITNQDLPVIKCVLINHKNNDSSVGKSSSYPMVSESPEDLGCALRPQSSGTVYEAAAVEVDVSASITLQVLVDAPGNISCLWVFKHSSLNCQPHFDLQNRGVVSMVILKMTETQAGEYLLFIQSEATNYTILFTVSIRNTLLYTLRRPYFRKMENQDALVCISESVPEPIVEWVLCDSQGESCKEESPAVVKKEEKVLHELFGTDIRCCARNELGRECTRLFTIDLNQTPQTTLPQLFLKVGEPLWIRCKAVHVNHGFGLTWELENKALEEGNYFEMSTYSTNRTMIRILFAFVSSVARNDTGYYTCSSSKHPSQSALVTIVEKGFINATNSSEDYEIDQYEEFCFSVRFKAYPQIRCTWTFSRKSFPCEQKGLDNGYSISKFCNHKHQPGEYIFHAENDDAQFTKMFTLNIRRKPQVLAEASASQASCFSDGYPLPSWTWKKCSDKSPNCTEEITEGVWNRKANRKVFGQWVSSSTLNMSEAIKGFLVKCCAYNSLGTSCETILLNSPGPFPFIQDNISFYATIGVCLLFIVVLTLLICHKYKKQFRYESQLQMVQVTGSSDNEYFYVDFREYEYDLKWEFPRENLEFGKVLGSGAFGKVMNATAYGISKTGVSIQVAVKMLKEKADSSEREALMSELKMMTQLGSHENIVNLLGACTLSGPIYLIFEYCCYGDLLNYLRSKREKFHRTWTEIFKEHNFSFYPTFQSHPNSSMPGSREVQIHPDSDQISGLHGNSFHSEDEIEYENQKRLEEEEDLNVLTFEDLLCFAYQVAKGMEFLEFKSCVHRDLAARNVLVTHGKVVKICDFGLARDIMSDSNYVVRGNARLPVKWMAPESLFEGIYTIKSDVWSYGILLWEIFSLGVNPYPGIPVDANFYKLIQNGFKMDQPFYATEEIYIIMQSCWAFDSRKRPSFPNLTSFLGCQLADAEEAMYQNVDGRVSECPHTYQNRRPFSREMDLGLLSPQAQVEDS
Conditions: read-out: IC50
Description: Inhibition of human FLT3 using 10 uM ATP
Recorded IC50, one value per entry.
outcome-measure: IC50 (nM)

• CC1=CC(=O)N(Nc2nc(-c3cccs3)nc3scc(-c4cccs4)c23)C1=O = 69
• CC1=CC(=O)N(Nc2nc(-c3ccccc3)nc3scc(-c4cccs4)c23)C1=O = 1600

* * *

Recorded Retention_time, one value per entry.
Assay: Retention time of the compound by HPLC method
Format: physicochemical
outcome-measure: Retention_time

* COc1sc2nc(-c3cccs3)nc(NN3C(=O)C=C(C)C3=O)c2c1C | 5.61 min
* CC1=CC(=O)N(Nc2nc(Cc3ccccc3)nc3scc(-c4cccs4)c23)C1=O | 7.09 min
* CC1=CC(=O)N(Nc2nc(-c3cccs3)nc3scc(-c4ccccc4)c23)C1=O | 8.39 min
* Cl.c1csc(-c2nc(N3CCNCC3)c3c(-c4cccs4)csc3n2)c1 | 4.39 min
* CC1=CC(=O)N(Nc2nc(-c3cccs3)nc3scc(-c4cccs4)c23)C1=O | 8.11 min
* CC1=CC(=O)N(Nc2nc(-c3ccc(N)cc3)nc3scc(-c4ccccc4)c23)C1=O | 5.16 min
* COc1ccc(-c2nc(NN3C(=O)C=C(C)C3=O)c3c(-c4ccccc4)csc3n2)cc1 | 9.76 min
* CC1=CC(=O)N(Nc2nc(-c3ccccc3)nc3scc(-c4cccs4)c23)C1=O | 6.15 min
* COCc1sc2nc(-c3cccs3)nc(NN3C(=O)C=C(C)C3=O)c2c1C | 10.19 min
* COc1ccc(-c2sc3nc(-c4cccs4)nc(NN4C(=O)C=C(C)C4=O)c3c2C)cc1 | 10.06 min
* CC1=CC(=O)N(Nc2nc(-c3cccs3)nc3sc(-c4ccc(O)cc4)c(C)c23)C1=O | 4.93 min
* CC1=CC(=O)N(Nc2nc(-c3cccs3)nc3sc(CO)c(C)c23)C1=O | 10.19 min
* COC(=O)c1sc2nc(-c3cccs3)nc(NN3C(=O)C=C(C)C3=O)c2c1C | 6.04 min
* CC1=CC(=O)N(Nc2nc(-c3cccs3)nc3sc(C(N)=O)c(C)c23)C1=O | 5.72 min
* CC1=CC(=O)N(Nc2nc(-c3cccs3)nc3sc(-c4ccc([N+](=O)[O-])cc4)c(C)c23)C1=O | 9.44 min
* CC1=CC(=O)N(Nc2nc(-c3ccc(C)s3)nc3scc(-c4cccs4)c23)C1=O | 6.17 min
* CC1=CC(=O)N(Nc2nc(-c3ccc(N(C)C)cc3)nc3scc(-c4ccccc4)c23)C1=O | 10.86 min
